Test system: NCI-H522 lung
Method Description: NCI-60 one-dose screen, 48 h
Condition Context: 10 µM unless noted
Compounds without any hit were thinned out: in the full panel of roughly 83,000, 20% have a hit. Calls of active or inactive are those of the source. How the source made its calls: active means growth percent below 10; inactive means the rest.
Select the matching outcome among true (1) = active, false (0) = inactive

Request: Short answer needed: outcome of this test for OC(c1ccc(Cl)cc1)(c1ccc(Cl)cc1)C(O)(c1ccc(Cl)cc1)c1ccc(Cl)cc1 ?
Result: false (0)

Request: Hi, do you know how CCCc1cc2cc(-n3nc(C)c4c3CC(C)(C)CC4=O)cc(NC3CCSCC3)c2c(=O)[nH]1 came out in this test?
Result: false (0)

Request: For CC1(C)NCCC[C@]2(C)[C@H]3C=CC4=C5C[C@](C)(CO)CC[C@]5(C)CC[C@@]4(C)[C@]3(C)CC[C@@H]12 , what call appears in the results of this test?
Result: true (1)

Request: Test call for this compound, please: CC(=O)Nc1ccc(C=Nc2ccc3ccccc3c2)cc1
Result: false (0)

Request: GET /call?item= O=C(N/N=C/c1ccc([N+](=O)[O-])cc1)c1ccc(Br)o1 returns the recorded outcome of this test.
Result: false (0)

Request: Write down the call the test reported for this compound. Item: O=C1/C(=C/c2cccc(OCc3ccccc3)c2)Oc2cc(OCCN3CCCCC3)ccc21
Result: false (0)

Request: // return assay outcome for O=C(O)CSCc1nnc2n(Cc3ccccc3)c(=O)c3c4c(sc3n12)CCCC4
Result: false (0)

Request: For Cc1cnc(N)nc1OCC(C)(C)CNC(=O)c1cccc(-c2ccc(S(=O)(=O)Nc3ccc4c(c3)N(C(=O)C3CC3)CCC4)cc2)c1 , which call appears in the assay record?
Result: false (0)

Request: // return assay outcome for CC(C)C1=NOC(=O)C1=Cc1cn(-c2ccccc2)nc1-c1ccc(Cl)cc1
Result: false (0)

Request: // return assay outcome for O=C(Nc1cccnc1)c1ccc2ccc3ccc(C(=O)Nc4cccnc4)nc3c2n1
Result: false (0)

Request: Outcome logged for Cc1nc(-c2ccccc2)sc1CC#N in this assay:
Result: false (0)

Request: Recorded test outcome, item CC[C@@H]1NC(=O)[C@@H]2CCCCN2C(=O)[C@@H]2CCCN2C(=O)[C@@H](NC(=O)[C@H](Cc2cc(F)cc(F)c2)NC(=O)Nc2ccc(C3CC3)cc2F)[C@H](C)OC(=O)[C@@H]2C[C@@H](C)CN2C1=O
Result: false (0)

Request: Hi, do you know how CCN(CC)CCCC(C)Nc1c2ccc(C)cc2nc2ccc(OC)cc12 (centres undefined) came out in this test?
Result: false (0)

Request: # fetch the recorded call for Cc1ccc(NC(=S)/N=c2/n(-c3ccccc3)nc3n2CCN3C2=NCCN2)cc1 here
Result: false (0)

Request: Would you mind telling me which call this test gave CCNC(=O)N1CCc2c(Cl)c3c(c(OC)c2[C@@H]1[C@H]1OCc2c1ccc(OC)c2OC)OCCO3 ?
Result: false (0)

Request: Answer briefly: the call reported for CSc1cccc([N+](=O)[O-])c1 in this assay.
Result: false (0)

Request: What classification did Cc1ccc(-c2cc(O)c(-c3ccc(C)cc3C)cc2O)c(C)c1 end up with in this test?
Result: false (0)

Request: Kindly provide the recorded test outcome for the following compound: CC(C)c1ccc(/C=N/N=C(N)N)cc1
Result: false (0)

Request: What was the test verdict on Oc1cc(Nc2ccnc3cc(Cl)ccc23)c2ncccc2c1 ?
Result: false (0)

* * *

System: PC-3 prostate
Method Description: NCI-60 one-dose screen, 48 h
Condition Context: 10 µM unless noted
Compounds without any hit were thinned out: in the full panel of roughly 83,000, 20% have a hit. The source made the active and inactive calls. The calls were made as follows: active = growth percent below 10; inactive = the rest.
Assign a class; possible classes are active, inactive

Request: Which outcome was entered for the compound C=C(C)[C@@H]1CC[C@]2(C(=O)N3CCN(C)CC3)CC[C@]3(C)[C@H](CC[C@@H]4[C@@]5(C)C/C(=C/c6ccncc6)[C@H](O)C(C)(C)[C@@H]5CC[C@]43C)[C@@H]12 in this test?
Result: active

Request: Which outcome did this test record for the compound CC1(C)CC(=O)c2c(ccc(C(=O)C[C@@H](N)CO)c2N)O1 ?
Result: inactive

Request: Hello, I am checking results. What call was entered for CCCCC(CCCCCC(CCCC)C1NC(C)Cc2cc(OC)c(OC)cc21)C1NC(C)Cc2cc(OC)c(OC)cc21 (centres undefined) ?
Result: active

Request: Check the results log: what was the call for Cc1cccc([N+](=O)[O-])c1I ?
Result: inactive

Request: Just curious, what result did COc1ccc(NC(=O)Nc2ccc(-c3cccnc3)cc2N2CCC(CO)CC2)cc1 get here?
Result: inactive

Request: Hey, what did the test say about O=C(N/N=C1\c2ccccc2-c2cccc(C(=O)O)c21)c1ccc(O)cc1 ?
Result: inactive

Request: GET /call?item= COc1ccc2nc3c(cc2c1)C(=O)CC(c1ccccc1)C3 (centres undefined) returns the recorded outcome of this test.
Result: inactive

Request: Dear colleague, could you share the recorded outcome for COc1cc(-c2cc(-c3ccc(Nc4ncnc5cc(Cl)ccc45)cc3)nc(N3CCCCC3)n2)cc(OC)c1OC when you have a moment?
Result: inactive

Request: Called result for COc1ccc2c(c1)c(-c1noc(-c3cn(C)c4ncc(F)cc34)n1)cn2C
Result: inactive

* * *

Tested on: EKVX NSCLC
Method Description: NCI-60 one-dose screen, 48 h
Condition Context: 10 µM unless noted
About 83,000 compounds went through this panel and 20% of them were active in at least one assay; those are over-represented in the sample as a whole. The source made the active and inactive calls. The calls were made as follows: active = growth percent below 10; inactive = the rest.
Your reply should match one of these outcome classes. active, inactive

Request: What did this assay record as the result for O=[N+]([O-])c1ccc(O)c(-c2nc3ccccc3s2)c1 ?
Result: inactive

Request: Field: outcome | Entry: O=C(N/N=C/c1c(Cl)cccc1Cl)c1cccc(Nc2ccnc(C(F)(F)F)c2)c1
Result: inactive

Request: # outcome recorded in this test, key = CCOC(=O)c1nn(C2CCCCO2)c2ccc(NC(=O)CN3CCCC3)cc12 (stereo not drawn)
Result: inactive

Request: Could you kindly confirm the outcome this assay logged for CC(C)C1=NOC(=O)C1=Cc1cn(-c2ccccc2)nc1-c1ccc(Br)cc1 ?
Result: inactive

Request: Test call for this compound, please: ClC1=C(Cl)C(Cl)=C(Cl)C1=Cc1ccccc1
Result: active

Request: Lab log entry: CC[C@]1(O)CC2CN(CCc3c([nH]c4ccccc34)[C@@](C(=O)OC)(c3cc4c(cc3OC)N(C=O)[C@H]3[C@@](O)(C(=O)OC)[C@H](OC(C)=O)[C@]5(CC)C=CCN6CC[C@]43[C@@H]65)C2)C1 (stereo partly drawn) — outcome as called in the assay?
Result: inactive

Request: Tell me the assay call for COC(=O)c1cc2c(=O)[nH]cc3c2c(n1)CCC3 please.
Result: inactive

Request: Which outcome did this test record for the compound C=C(C)C1CCC2(C(=O)O)CCC3(C)C(CCC4C5(C)CCC(OC(=O)NCc6ccccc6)C(C)(C)C5CCC43C)C12 (stereo not drawn) ?
Result: inactive

Request: Please indicate how the test categorized C=C(C)[C@@H]1CC[C@]2(C)[C@H](C(=O)C=C3[C@@H]4C[C@](C)(C(=O)N5CCN(C)CC5)CC[C@]4(C)CC[C@]32C)[C@@]1(C)CCC#N .
Result: active

Request: Tell me the assay call for O=C(NCc1ccc(Cn2c(=O)sn(-c3ccccc3)c2=O)cc1)OCc1ccc2c(Br)cc(Br)c(O)c2n1 please.
Result: active

Request: Short answer needed: outcome of this test for CCOC(=O)c1nn(C2CCCCO2)c2ccc(NC(=O)CN3CCOCC3)cc12 (stereo not drawn) ?
Result: inactive

Request: Hello, I am checking results. What call was entered for Clc1ccc(N2CCN(CCCN3CCN(c4cccc(Cl)c4)CC3)CC2)cc1 ?
Result: inactive

Request: Which result was noted for this compound in the test: CCCCCC1CCCCN1C(=O)OCCCC (stereo not drawn)
Result: inactive

Request: Given COc1cc(-c2cc(-c3ccc(Nc4ncnc5cc(Cl)ccc45)cc3)nc(N3CCCCC3)n2)cc(OC)c1OC , state the outcome it received in this test.
Result: inactive

Request: Please let me know the test result on file for C=C(C)[C@@H]1CC[C@]2(C(=O)O)CC[C@]3(C)[C@H](CC[C@@H]4[C@@]5(C)C/C(=C/c6ccco6)C(=O)C(C)(C)[C@@H]5CC[C@]43C)[C@@H]12 .
Result: active

Request: Name the outcome recorded for O=C(O)CC1CCCCC1c1ccccc1 (stereo not drawn) in the assay.
Result: inactive

Request: What outcome does the record of this test show for O=S(=O)(NCCCNc1nccc(-c2c(-c3cccc(F)c3)nc3occn23)n1)c1cccc2ccccc12 ?
Result: inactive

Request: What did the test return for Nc1cc(N)c(N=Nc2ccc(S(=O)(=O)O)cc2)cc1N=Nc1ccc(-c2ccc(N=Nc3ccc(O)c(C(=O)O)c3)cc2)cc1 ?
Result: inactive
